- experimental_target: Proto-oncogene tyrosine-protein kinase Src (Homo sapiens)
- assay: Inhibition of human purified recombinant pp60c-src tyrosine kinase at 100 uM
recorded_endpoint: inhibition (%)
Reply with just the number (in %).

Known inhibition results, listed for orientation:
O=C(Nc1ccccc1O)c1cc2cccc(O)c2cc1O: 12
O=C(Nc1cccc(O)c1)c1cc2cccc(O)c2cc1O: 51
COc1ccc(CNC(=O)c2cc3cccc(O)c3cc2O)cc1: 14
O=C(NCc1cccc(O)c1)c1cc2ccc(O)cc2cc1O: 55

QUERY: Determine its reported inhibition: O=C(Nc1cccc(O)c1)c1cc2ccc(O)cc2cc1O
RESULT: 89

----------
- experimental_target: Proto-oncogene tyrosine-protein kinase Src (Homo sapiens)
- assay: Inhibition of human purified recombinant pp60c-src tyrosine kinase
recorded_endpoint: pIC50
pIC50 is defined as minus the log10 of a concentration measured in mol/L.

QUERY: Determine its reported pIC50: O=C(Nc1cccc(O)c1)c1cc2cccc(O)c2cc1O
RESULT: 3.82

----------
- experimental_target: Proto-oncogene tyrosine-protein kinase Src (Homo sapiens, UniProt P12931)
- Sequence (P12931 2-536 limits assumed): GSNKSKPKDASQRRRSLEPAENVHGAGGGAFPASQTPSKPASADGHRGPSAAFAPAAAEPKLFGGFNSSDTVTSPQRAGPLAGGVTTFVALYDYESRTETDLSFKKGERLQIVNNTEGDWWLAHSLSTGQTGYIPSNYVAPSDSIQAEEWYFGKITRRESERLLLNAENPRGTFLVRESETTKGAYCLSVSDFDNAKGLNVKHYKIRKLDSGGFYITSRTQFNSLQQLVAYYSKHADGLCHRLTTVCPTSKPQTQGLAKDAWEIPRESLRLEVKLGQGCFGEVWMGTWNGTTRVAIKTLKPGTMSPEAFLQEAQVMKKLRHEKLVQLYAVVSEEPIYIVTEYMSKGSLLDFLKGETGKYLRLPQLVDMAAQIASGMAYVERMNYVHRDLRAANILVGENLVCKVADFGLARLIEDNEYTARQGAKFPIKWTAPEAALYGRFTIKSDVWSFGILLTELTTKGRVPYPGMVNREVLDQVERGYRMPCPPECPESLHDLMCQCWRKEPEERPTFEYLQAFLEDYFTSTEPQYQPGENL
- assay: Inhibition of human purified recombinant pp60c-src tyrosine kinase at 100 uM
Recorded measurements of inhibition, one per entry
Reply with just the number (in %).

Known inhibition results, listed for orientation:
COc1ccccc1CNC(=O)c1cc2cccc(O)c2cc1O: 13
O=C(Nc1cccc(O)c1)c1ccc2cc(O)ccc2c1: 45
Cc1cc(O)c2c(c1)C(=O)c1cc(O)cc(O)c1C2=O: 22

QUERY: Determine its reported inhibition: O=C(Nc1ccc(O)cc1O)c1cc2cccc(O)c2cc1O
RESULT: 14

QUERY: Determine its reported inhibition: COc1ccc(NC(=O)c2cc3cccc(O)c3cc2O)cc1
RESULT: 35

QUERY: Determine its reported inhibition: COC(=O)c1cc2ccc(O)cc2cc1O
RESULT: 47

QUERY: Determine its reported inhibition: O=C(Nc1ccccc1O)c1cc2ccc(O)cc2cc1O
RESULT: 39

QUERY: Determine its reported inhibition: O=C(Nc1ccc(O)cc1)c1cc2ccc(O)cc2cc1O
RESULT: 23

QUERY: Determine its reported inhibition: COc1cccc(NC(=O)c2cc3cccc(O)c3cc2O)c1
RESULT: 33

----------
Recorded measurements of inhibition, one per entry
- experimental_target: Proto-oncogene tyrosine-protein kinase Src (Homo sapiens, UniProt P12931)
- assay: Inhibition of human purified recombinant pp60c-src tyrosine kinase at 100 uM
Reply with just the number (in %).

O=C(NCc1ccccc1O)c1cc2ccc(O)cc2cc1O: 42
O=C(NCc1ccc(O)cc1)c1cc2ccc(O)cc2cc1O: 42

QUERY: Determine its reported inhibition: COC(=O)c1cc2cccc(O)c2cc1O
RESULT: 5
